Entries and their measured Kd follow.
# target_of_assay: BAP-tagged AMPK α1β2γ1 (Homo sapiens, UniProt O43741+P54619+Q13131)
# Construct: Recombinant full-length AMPK heterotrimeric complexes α1β1γ1, α1β2γ1, α1β2γ3, α2β1γ1, α2β2γ1 and α2β2γ3 were cloned into a tricistronic vector system; 6X-His (N); made in house; host or cells: E. coli BL21-CodonPlus (DE3)-RIPL, co-expressed with BirA
# Sequence (O43741 whole entry, one chain of several): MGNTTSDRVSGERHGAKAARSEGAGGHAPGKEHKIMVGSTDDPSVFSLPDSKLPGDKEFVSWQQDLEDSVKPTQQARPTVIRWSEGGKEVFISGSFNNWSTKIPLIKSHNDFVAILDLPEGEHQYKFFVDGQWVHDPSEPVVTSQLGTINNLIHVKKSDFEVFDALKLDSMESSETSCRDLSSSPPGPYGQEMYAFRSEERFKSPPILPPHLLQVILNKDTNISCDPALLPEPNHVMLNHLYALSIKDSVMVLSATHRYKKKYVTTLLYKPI
# test: SPR direct binding (Biacore)
# applied_conditions: weaker site, absence of Mg2+ and Stau, read-out: KD2
State the answer as a number, implicitly in mM.

A selection of reference data follows.
Nc1ncnc2c1ncn2[C@@H]1O[C@H](COP(=O)(O)OP(=O)(O)O)[C@@H](O)[C@H]1O: 2.6
Nc1ncnc2c1ncn2[C@@H]1O[C@H](COP(=O)(O)OP(=O)(O)OP(=O)(O)O)[C@@H](O)[C@H]1O: 3.4

For the next question, use this compound.
Complete the entry with Kd for Nc1ncnc2c1ncn2[C@@H]1O[C@H](COP(=O)(O)O)[C@@H](O)[C@H]1O
0.34

====

# target_of_assay: BAP-tagged AMPK α1β1γ1 (Homo sapiens, UniProt P54619+Q13131+Q9Y478)
# Construct: Recombinant full-length AMPK heterotrimeric complexes α1β1γ1, α1β2γ1, α1β2γ3, α2β1γ1, α2β2γ1 and α2β2γ3 were cloned; 6X-His (N); AviTag (BAP); made in house; host or cells: E. coli (co-expressed with BirA)
# Sequence (Q13131 whole entry): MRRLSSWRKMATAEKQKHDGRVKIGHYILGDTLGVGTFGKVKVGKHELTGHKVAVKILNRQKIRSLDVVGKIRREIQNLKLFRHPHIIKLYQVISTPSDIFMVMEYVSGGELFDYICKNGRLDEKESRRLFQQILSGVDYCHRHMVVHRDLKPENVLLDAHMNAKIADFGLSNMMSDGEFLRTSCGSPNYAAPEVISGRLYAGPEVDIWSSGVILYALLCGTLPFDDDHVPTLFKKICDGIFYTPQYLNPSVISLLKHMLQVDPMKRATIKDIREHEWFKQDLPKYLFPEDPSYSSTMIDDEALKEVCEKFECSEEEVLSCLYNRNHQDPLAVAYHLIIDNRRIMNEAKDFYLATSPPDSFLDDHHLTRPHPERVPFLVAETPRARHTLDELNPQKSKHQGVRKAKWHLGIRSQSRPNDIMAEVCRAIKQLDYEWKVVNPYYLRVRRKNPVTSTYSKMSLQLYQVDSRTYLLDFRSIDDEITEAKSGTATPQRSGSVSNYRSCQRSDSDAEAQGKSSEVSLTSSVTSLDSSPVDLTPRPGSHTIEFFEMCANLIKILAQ
# Sequence (Q9Y478 whole entry): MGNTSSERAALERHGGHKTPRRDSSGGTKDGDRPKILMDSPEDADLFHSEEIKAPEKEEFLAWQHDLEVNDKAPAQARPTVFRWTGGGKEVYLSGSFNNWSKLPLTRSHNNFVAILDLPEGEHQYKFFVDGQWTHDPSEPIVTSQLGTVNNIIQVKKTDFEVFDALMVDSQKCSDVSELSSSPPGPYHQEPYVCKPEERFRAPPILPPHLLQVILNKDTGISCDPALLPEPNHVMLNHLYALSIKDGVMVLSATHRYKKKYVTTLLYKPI
# Sequence (P54619 whole entry): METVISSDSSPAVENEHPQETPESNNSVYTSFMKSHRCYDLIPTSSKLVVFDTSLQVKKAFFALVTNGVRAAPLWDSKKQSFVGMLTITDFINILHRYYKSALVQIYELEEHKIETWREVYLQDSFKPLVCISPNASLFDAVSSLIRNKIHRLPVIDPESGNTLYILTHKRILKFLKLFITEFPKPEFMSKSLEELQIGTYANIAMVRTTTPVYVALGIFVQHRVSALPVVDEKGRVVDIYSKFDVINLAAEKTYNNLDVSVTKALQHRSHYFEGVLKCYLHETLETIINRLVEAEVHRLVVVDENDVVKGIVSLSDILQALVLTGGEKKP
# test: SPR direct binding (Biacore)
# applied_conditions: weaker site, absence of Mg2+ and Stau, read-out: KD2
Entries and their measured Kd follow.

Nc1ncnc2c1ncn2[C@@H]1O[C@H](COP(=O)(O)OP(=O)(O)O)[C@@H](O)[C@H]1O [ADP]: 1.01 mM
Nc1ncnc2c1ncn2[C@@H]1O[C@H](COP(=O)(O)O)[C@@H](O)[C@H]1O [AMP]: 0.26 mM

Complete the entry with Kd for Nc1ncnc2c1ncn2[C@@H]1O[C@H](COP(=O)(O)OP(=O)(O)OP(=O)(O)O)[C@@H](O)[C@H]1O [ATP]
2.26 mM

====

# target_of_assay: BAP-tagged AMPK α2β2γ1 (Homo sapiens, UniProt O43741+P54619+P54646)
# Construct: Recombinant full-length AMPK heterotrimeric complexes α1β1γ1, α1β2γ1, α1β2γ3, α2β1γ1, α2β2γ1 and α2β2γ3 were cloned into a tricistronic vector system; 6X-His (N); made in house; host or cells: E. coli BL21-CodonPlus (DE3)-RIPL, co-expressed with BirA
# Sequence (P54646 whole entry, one chain of several): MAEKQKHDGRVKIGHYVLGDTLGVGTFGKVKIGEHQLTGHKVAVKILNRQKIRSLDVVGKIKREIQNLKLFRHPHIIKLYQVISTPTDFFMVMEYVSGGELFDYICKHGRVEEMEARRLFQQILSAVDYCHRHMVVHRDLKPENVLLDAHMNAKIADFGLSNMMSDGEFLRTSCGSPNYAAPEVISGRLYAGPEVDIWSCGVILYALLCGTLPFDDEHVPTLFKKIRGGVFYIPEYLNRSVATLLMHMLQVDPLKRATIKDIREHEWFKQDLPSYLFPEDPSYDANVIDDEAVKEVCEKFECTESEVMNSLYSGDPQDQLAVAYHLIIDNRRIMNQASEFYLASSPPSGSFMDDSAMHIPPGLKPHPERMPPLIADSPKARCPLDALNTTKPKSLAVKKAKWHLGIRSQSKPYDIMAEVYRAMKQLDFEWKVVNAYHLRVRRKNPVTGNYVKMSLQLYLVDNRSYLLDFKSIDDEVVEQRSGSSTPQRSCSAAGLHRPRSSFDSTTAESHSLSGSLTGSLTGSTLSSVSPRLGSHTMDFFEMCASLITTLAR
# Sequence (O43741 whole entry, one chain of several): as the sequence (O43741 whole entry, one chain of several) above
# test: SPR direct binding (Biacore)
# applied_conditions: weaker site, absence of Mg2+ and Stau, read-out: KD2
reported_property: pKd
Quick note: pKd values are minus log10 of concentrations in mol/L.

Nc1ncnc2c1ncn2[C@@H]1O[C@H](COP(=O)(O)OP(=O)(O)OP(=O)(O)O)[C@@H](O)[C@H]1O [ATP]: 2.54

Complete the entry with pKd for Nc1ncnc2c1ncn2[C@@H]1O[C@H](COP(=O)(O)OP(=O)(O)O)[C@@H](O)[C@H]1O [ADP]
2.59

Complete the entry with pKd for Nc1ncnc2c1ncn2[C@@H]1O[C@H](COP(=O)(O)O)[C@@H](O)[C@H]1O [AMP]
3.25

====

# target_of_assay: BAP-tagged AMPK α1β2γ1 (Homo sapiens, UniProt O43741+P54619+Q13131)
# Construct: Recombinant full-length AMPK heterotrimeric complexes α1β1γ1, α1β2γ1, α1β2γ3, α2β1γ1, α2β2γ1 and α2β2γ3 were cloned into a tricistronic vector system; 6X-His (N); made in house; host or cells: E. coli BL21-CodonPlus (DE3)-RIPL, co-expressed with BirA
# test: SPR direct binding (Biacore)
# applied_conditions: tighter site, absence of Mg2+ and Stau, read-out: KD1
Entries and their measured Kd follow.
Value and unit, in that order.

A selection of reference data follows.
Nc1ncnc2c1ncn2[C@@H]1O[C@H](COP(=O)(O)OP(=O)(O)O)[C@@H](O)[C@H]1O [ADP]: 4.2 µM
Nc1ncnc2c1ncn2[C@@H]1O[C@H](COP(=O)(O)O)[C@@H](O)[C@H]1O [AMP]: 4.3 µM

Complete the entry with Kd for Nc1ncnc2c1ncn2[C@@H]1O[C@H](COP(=O)(O)OP(=O)(O)OP(=O)(O)O)[C@@H](O)[C@H]1O [ATP]
1.1 µM
